Measured values drawn from patent US20230265187A1 for this set.

# measured on: T1, his-tagged human TIGIT (Acro Biosystems #TIT-H52H3) (human, UniProt Q495A1 22-141)
# T1 construct: Bought protein; also called His-tagged-TIGIT (human); not shown: his tag
# T1 sequence (looked up): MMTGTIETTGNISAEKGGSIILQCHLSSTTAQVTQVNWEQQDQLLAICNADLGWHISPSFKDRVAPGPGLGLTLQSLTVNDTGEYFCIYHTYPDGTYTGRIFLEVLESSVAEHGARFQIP
# method summary: SPR (Carterra LSA), scFv-Fc captured, His-TIGIT analyte
Reported pKd values follow for various binders
# pKd is unitless: minus log10 of the molar concentration; print number only

Input 43586p2.D01 (scFv, V domains shown) VH: EVQLLESGGGLVQPGGSLRLSCAASGFTVSSNWMSWVRQAPGKGLEWVSTTSSSSWNNYTYYADSVKGRFTISRDNSKNTLYLQMNSLRAEDTAVYYCAKGSYGMDVWGQGTTVTVSS VL: QSVLTQPPSASGTPGQRVTISCSGSNSNIGAKYLYWYQQLPGTAPKLLIYLNDQRPSGVPDRFSGSKSGTSASLAISGLQSEDEADYYCAFWDDHLKGWVFGGGTKLTVL , output reported pKd.
8.98

Answer with the recorded pKd of 43586p2.F11 (scFv, V domains shown) VH: EVQLLELGGSLVQPGGSLRLSCAASGFTFDDYVMSWVRQAPGKGLEWVSLINWNGDKTYYADSVKGRFTISRDNSKNTLYLQMNSLRAEDTAVYYCARHWIVFQYGLDVWGQGTTVTVSS VL: QSVLTQPLSASGTPGQKVTISCSGVSSNIEIKYVSWYQQLPGTAPKLLIYNSHQRPSGVPDRFSGSKSGTSASLAISGLQSEDEADYYCTSWDDRLKSWVFGGGTKLTVL only.
9.51

Turning now to a further record.
Recall and state the measured pKd for 43586p2.E08 (scFv, V domains shown) VH: EVQLLESGGDLVQPGGSLRLSCAASGFTFDDYVMSWVRQAPGKGLEWVSLINWNGDKTYYADSVKDRFTISRDNSKNTLYLQMNSLRAEDTAVYYCARHWIVFQYGLDVWGQGTTVTVSS VL: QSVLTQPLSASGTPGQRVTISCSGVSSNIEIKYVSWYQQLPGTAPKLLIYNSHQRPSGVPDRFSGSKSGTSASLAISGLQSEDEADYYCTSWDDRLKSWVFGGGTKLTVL .
9.60
